system: HCC-2998 colon; test: NCI-60 one-dose screen, 48 h; conditions: 10 µM unless noted
This is part of a sample that, as a whole, favours compounds with a hit. Of some 83,000 tested, about 20% had one in any assay. Activity calls are given as the source filed them. How the source made its calls: active means growth percent below 10; inactive means the rest.
Classes to choose from: 1 (yes) for active, 0 (no) for inactive

In this assay, the call recorded for O=c1c2c3c(sc2nc(N/N=C/c2ccc(Br)cc2)n1Cc1ccccc1)CCCC3 was what?
0 (no)

In this assay, the call recorded for O=c1[nH]ccc2nc(N3CCC(O)CC3)nc(Nc3ccc(N4CCOCC4)cc3)c12 was what?
0 (no)

In this assay, the call recorded for CCCCCCCCCCCCCCCCCCOc1ccc(CC(=O)OCC[N+]2(C)CCCC2)cc1 was what?
0 (no)

In this assay, the call recorded for CC(=O)N1C(=S)NC(=O)C1Cn1c(-c2ccccc2)nc2ccccc21 (stereo not given) was what?
0 (no)

In this assay, the call recorded for N#CC1=C(/N=C/c2ccccc2)Oc2c(ccc3ccccc23)C1c1ccccc1 (stereo not given) was what?
1 (yes)

* * *

system: OVCAR-3 ovarian; test: NCI-60 one-dose screen, 48 h; conditions: 10 µM unless noted
This is part of a sample that, as a whole, favours compounds with a hit. Of some 83,000 tested, about 20% had one in any assay. Active and inactive are the calls of the source. Rule for the calls: active = growth percent below 10; inactive = the rest.
Classes to choose from: y (active), n (inactive)

In this assay, the call recorded for COc1ccc(-c2nc3c(c(=O)n2C(C)=O)C(c2ccc(Cl)cc2)c2sc4c(Cl)cccc4c2O3)cc1 (centres undefined) was what?
y

In this assay, the call recorded for Cc1cc[c-]cc1.Fc1c[c-]c(-c2ccccn2)c(F)c1.[Pt+2].c1ccc(P(C[PH+](c2ccccc2)c2ccccc2)c2ccccc2)cc1 was what?
n

In this assay, the call recorded for O=c1[nH][n+](-c2ccc(Cl)cc2)no1 was what?
n

In this assay, the call recorded for CC1CC(C(C)(C)C)C(=O)C(C(C)(C)C)C1 (centres undefined) was what?
n

In this assay, the call recorded for c1csc(-c2c3ccc(=[N+]4CCCCC4)cc-3oc3cc(N4CCCCC4)ccc23)c1 was what?
y

In this assay, the call recorded for COc1ccc2[nH]c(O)c(C(=Nc3ccc(N(C)C(=O)CN4CCN(C)CC4)cc3)c3ccccc3)c2c1 was what?
n

In this assay, the call recorded for OC(c1cccc(-n2ccc(C(F)(F)F)n2)c1)c1cnccc1NC1CCCCCC1 (centres undefined) was what?
n

In this assay, the call recorded for N#Cc1c(N)nc2c(C#N)c(NC(=O)c3ccccc3)nn2c1-c1ccccc1 was what?
n

In this assay, the call recorded for O=c1oc2ccccc2c(Cl)c1Cl was what?
n

In this assay, the call recorded for Cc1cc(Cl)nc(NCc2cc(Nc3ccnc4cc(Cl)ccc34)ccc2F)n1 was what?
n

In this assay, the call recorded for CCN1C(=O)N(CC)C2C1NN=c1s/c(=C\c3cccs3)c(=O)n12 (centres undefined) was what?
y

In this assay, the call recorded for C[C@H]1[C@H]2[C@H]3CC[C@@H]4[C@@]5(C)C/C(=C/c6ccco6)C(=O)C(C)(C)[C@@H]5CC[C@@]4(C)[C@]3(C)CC[C@]23CO[C@]1(C)[C@@H](C(=O)/C=C\c1ccco1)C3 was what?
n

In this assay, the call recorded for CC(=O)n1c(-c2ccc(Cl)cc2)nc2c(c1=O)C(c1ccc(Cl)cc1)c1sc3c(Cl)cccc3c1O2 (centres undefined) was what?
y

In this assay, the call recorded for COc1ccc(N2CCN(c3nc(-c4cc(OC)c(OC)c(OC)c4)nc4ccccc34)CC2)cc1 was what?
n

In this assay, the call recorded for Cn1c(-c2c(N)n(Cc3ccc(C(F)(F)F)cc3)c3nc(C#N)c(C#N)nc23)nc2ccccc21 was what?
y

In this assay, the call recorded for COc1ccc(-c2cc(-c3cc(OC)c(OC)c(OC)c3)c(C#N)c(N3CCOCC3)n2)cc1O was what?
n

In this assay, the call recorded for C(=N\Nc1ncc(-c2cc3cc4c(cc3o2)OCO4)s1)/c1ccco1 was what?
y

In this assay, the call recorded for N#Cc1c(-c2ccccn2)[nH]c(=S)[nH]c1=O was what?
n

In this assay, the call recorded for COc1ccc(C(=O)/C=C/c2c(C(F)(F)F)nc3sccn23)cc1OC was what?
y

In this assay, the call recorded for N=C1C(c2nc(-c3ccc(Br)cc3)cs2)=C(O)CN1Cc1cccnc1 was what?
n

In this assay, the call recorded for COC(=O)c1ccc(CSc2nnc(-c3c(C)nc4ccc(C)cn34)o2)cc1 was what?
n

In this assay, the call recorded for c1ccc2cc3nc4cc5ccccc5cc4nc3cc2c1 was what?
n

In this assay, the call recorded for Cc1ccc(C2SCC(=O)N2Cc2ccccc2)cc1 (centres undefined) was what?
n

In this assay, the call recorded for O=C(CSc1nnc(-c2ccc(NC(=O)c3cccnc3)cc2)o1)N[C@@H](Cc1ccc(O)cc1)C(=O)O was what?
n

In this assay, the call recorded for O=C1/C(=C\c2cccnc2)SC(=S)N1CCc1ccc(O)cc1 was what?
n

In this assay, the call recorded for C[C@H](NC(=O)[C@@H]1CSSC[C@@H](NC(=O)c2nc3ccccc3cc2O)C(=O)NCC(=O)N1C)c1ccccc1 was what?
y

In this assay, the call recorded for O=C(O)c1ccc2c(c1Cl)C(=O)c1ccccc1C2=O was what?
n

In this assay, the call recorded for COc1cc(/C=C/C(=O)c2c(C)nc3ccccc3c2/C=C/c2ccc(C)cc2)cc(OC)c1OC was what?
n

In this assay, the call recorded for COc1cccc(-c2nc3sccn3c2-c2ccnc(NCCNS(=O)(=O)c3cccc(Cl)c3)c2)c1 was what?
n

In this assay, the call recorded for Cc1nn(-c2ccccc2)c(Cl)c1/C=C(/NC(=O)c1ccccc1)c1nc2ccccc2[nH]1 was what?
n

In this assay, the call recorded for O=Cc1ccc(O)c2ncccc12 was what?
y

In this assay, the call recorded for CC1=NOC(=O)/C1=C\c1ccc(O)cc1 was what?
n

In this assay, the call recorded for O=c1c2cc(F)ccc2sc2c(NCCCN3CCCC3)nc3ccccc3c12 was what?
n

In this assay, the call recorded for c1ccc2c(c1)nc(CN1CCOCC1)n1cc(N3CCCC3)nc21 was what?
n

In this assay, the call recorded for COc1cc(C(=O)/C=C/c2c(-c3ccc(F)cc3)nc3sc(C)cn23)cc(OC)c1OC was what?
n

In this assay, the call recorded for O=C1C=C[C@]2(C[C@@H](c3cccc(C(F)(F)F)c3)O[C@@H](c3cccc(C(F)(F)F)c3)O2)O1 was what?
y

In this assay, the call recorded for COc1ccc2c(c1)O/C(=C/c1ccc(OCC(=O)c3ccccc3)cc1)C2=O was what?
n

In this assay, the call recorded for Cc1cccc(NC(=O)CSc2nc3ccccc3[nH]2)c1 was what?
n

In this assay, the call recorded for COc1cccc(-c2nn(-c3ccccc3)cc2-c2ccnc(NCCCNC(=O)c3ccccc3)c2)c1 was what?
n

* * *

Would you mind telling me the reported growth of each entry?
system: HCT-116 colon; test: NCI-60 one-dose screen, 48 h (100 = growth as untreated, 0 = no growth, -100 = all killed); settings: 10 µM unless noted
This is part of a sample that, as a whole, favours compounds with a hit. Of some 83,000 tested, about 20% had one in any assay.
Answer in %, number only, no unit symbol.

For Cc1cc(C)c2c(-c3nnc(N)s3)cc(=O)oc2c1 , write its growth.
102

For O=C(O)c1ccc2c(c1)CCC2 , write its growth.
105

For COc1ccc(-c2csc(C3=C(O)CN(CCCN4CCCC4=O)C3=N)n2)cc1OC , write its growth.
88.7

For COc1ccc(Nc2nnc(SCc3ccccc3F)s2)cc1 , write its growth.
103

For N#C/C(=C\c1ccc(-c2ccccc2F)o1)c1nc(-c2ccco2)cs1 , write its growth.
93

For COc1cc(C2CC(=O)Nc3c2c(C)nn3-c2nc3ccccc3[nH]2)c(OC)c2c1OCO2 (stereo unspecified) , write its growth.
61.6

* * *

tested on: OVCAR-5 ovarian; assay: NCI-60 one-dose screen, 48 h; details: 10 µM unless noted
The panel holds about 83,000 compounds, 20% with a hit somewhere; the sample as a whole holds those more often. Calls of active or inactive are those of the source. Rule for the calls: active = growth percent below 10; inactive = the rest.
Classes to choose from: Yes for active, No for inactive

In this assay, the call recorded for CC1(C)CC[C@]2(C(=O)N3CCOCC3)CC[C@]3(C)C(=CC[C@@H]4[C@@]5(C)CC[C@H](OC(=O)c6cccnc6)C(C)(C)[C@@H]5CC[C@]43C)[C@@H]2C1 was what?
No

In this assay, the call recorded for Cc1cc(C(=O)c2ccccc2)c(C)c2c1[nH]c1ccc(Cl)cc12 was what?
No

In this assay, the call recorded for CC1(c2ccccc2)NC(=O)N(NC(=O)CSc2nc(-c3cccs3)nc3ccccc23)C1=O (centres undefined) was what?
No

In this assay, the call recorded for Nc1n[nH]c(-c2cc(Cl)ccc2O)c1-c1ccccc1 was what?
No

In this assay, the call recorded for COc1cc(C(=O)/C=C/c2c(-c3ccc(F)cc3)nc3sc(C)cn23)cc(OC)c1OC was what?
No

In this assay, the call recorded for COC(=O)[C@]12CC[C@@H](C)[C@H](C)[C@@H]1C1=CC[C@@H]3[C@@]4(C)C(C=O)=C[C@@](C)(COC(C)=O)[C@@H]4C(=O)C[C@@]3(C)[C@]1(C)CC2 was what?
No

In this assay, the call recorded for C#Cc1cccc(NC(=O)c2ccc(NC(=O)CCl)cc2)c1 was what?
No

In this assay, the call recorded for CCc1c2c(nc3ccc(OC(=O)NCc4ccc(B5OC(C)(C)C(C)(C)O5)cc4)cc13)-c1cc3c(c(=O)n1C2)COC(=O)[C@]3(O)CC was what?
Yes

In this assay, the call recorded for COC(=O)[C@H](CSC)N(C)C(=O)[C@@H]1CSSC[C@@H](NC(=O)c2nc3ccccc3cc2O)C(=O)NCC(=O)N1C was what?
No

In this assay, the call recorded for COc1ccc(/C=N\NC(=O)c2cc(-c3ccc(Br)cc3)n(-c3ccc(S(N)(=O)=O)cc3)n2)cc1 was what?
No

In this assay, the call recorded for CCOc1c(C#N)nnc2c(C#N)c(NC(=O)c3ccccc3)nn12 was what?
No

In this assay, the call recorded for CC(=O)n1c(-c2ccc(Cl)cc2)nc2c(c1=O)C(c1ccc(Cl)cc1)c1sc3c(Cl)cccc3c1O2 (centres undefined) was what?
Yes

In this assay, the call recorded for COC(=O)[C@]12CC[C@@H](C)[C@H](C)[C@@H]1C1=CC[C@@H]3[C@@]4(C)C(C=O)=C[C@@](C)(COC(C)=O)[C@@H]4[C@H](O)C[C@@]3(C)[C@]1(C)CC2 was what?
Yes

In this assay, the call recorded for Cc1ccc2nc(NC(=O)CSc3nc(-c4ccccc4)c(C#N)c(=O)n3Cc3ccccc3)sc2c1 was what?
No

In this assay, the call recorded for COc1cc(C(=O)c2cc(C)c3[nH]c4ccc(Cl)cc4c3c2C)cc(OC)c1OC was what?
No

In this assay, the call recorded for COc1ccc(-c2cc(-c3ccc(Nc4nc(Nc5ccc(Cl)cc5)nc(Nc5ccc(Cl)cc5)n4)cc3)nc(N)c2C#N)cc1 was what?
No

In this assay, the call recorded for COC(=O)[C@]12CC[C@@H](C)[C@H](C)[C@@H]1C1=CC[C@@H]3[C@@]4(C)C(C=O)=C[C@@](C)(CO)[C@@H]4[C@H](O)C[C@@]3(C)[C@]1(C)CC2 was what?
Yes

In this assay, the call recorded for N#CC1=C(c2ccc(Br)cc2)NC(SCC(=O)c2ccc(Br)cc2)NC1=O (centres undefined) was what?
No

In this assay, the call recorded for CC1=C([Se]CC(OC(=O)CC[Se]c2ccccc2)C(=O)NCCCCCC(=O)OCc2ccccc2)C(=O)c2ccccc2C1=O (centres undefined) was what?
No

In this assay, the call recorded for CCOC(CN=Cc1cc(C)c2[nH]c3ccccc3c2c1C)OCC was what?
No

In this assay, the call recorded for O=C(CC(SCc1ccccc1)c1ccccc1)c1ccccc1 (centres undefined) was what?
No

In this assay, the call recorded for CC1CC2Oc3ccc(Cl)cc3C(=O)N2O1 (centres undefined) was what?
No

In this assay, the call recorded for Cc1cc(NCc2cc(Nc3ccnc4cc(Cl)ccc34)ccc2F)nc(Cl)n1 was what?
No

In this assay, the call recorded for COC(=O)[C@]12CC[C@@H](C)[C@H](C)[C@@H]1C1=CC[C@@H]3[C@@]4(C)C(C=O)=C[C@@](C)(COC(C)=O)C4=CC[C@@]3(C)[C@]1(C)CC2 was what?
No

In this assay, the call recorded for CC(C)CCC[C@@H](C)[C@H]1CC[C@H]2[C@@H](Nc3ccc(O)cc3)CCC[C@]12C was what?
No

In this assay, the call recorded for C=CC(=O)Nc1cccc(Oc2nccc(Nc3nnc(C4CC4)s3)n2)c1 was what?
No

In this assay, the call recorded for COc1cc(C2NC(=O)c3ccccc3N2)ccc1OCCCCCOc1c(OC)cc(C2=NOC(c3cc(OC)c(OC)c(OC)c3)C2)cc1OC (centres undefined) was what?
No

In this assay, the call recorded for Cc1ccc2nc(C)c(-c3nnc(SCc4ccc(C#N)cc4)o3)n2c1 was what?
No

In this assay, the call recorded for COc1cc(/C=C/C(=O)c2c(C)nc3ccccc3c2/C=C/c2ccc(C)cc2)cc(OC)c1OC was what?
No

In this assay, the call recorded for CC/C=C1/C(=O)C=C[C@@H]1C/C=C\CCCC(=O)O was what?
No

In this assay, the call recorded for COCCN(C(=O)c1ccc(F)cc1F)c1c(N)n(Cc2ccccc2)c(=O)[nH]c1=O was what?
No

In this assay, the call recorded for COc1cc(OC)cc(C2CC(=O)Nc3c2c(C)nn3-c2nc3ccccc3[nH]2)c1 (centres undefined) was what?
No

In this assay, the call recorded for O=C1/C(=C/c2ccc(F)cc2)C=C(c2ccccc2)N1CCc1ccccc1 was what?
No

In this assay, the call recorded for C[C@@H]1N=C(c2ccc3ccccc3n2)Nc2nc3ccccn3c2C1=O was what?
No

Origin of the recorded values: PubChem BioAssay (NCI)
